Tested on: T-47D breast
ASSAY_NOTES: NCI tumour cell line growth inhibition, 48 h
Entries and their measured TGI follow.
Output spec: scalar in µM, unitless text.

Would you please look over these solved cases?
INSERT INTO assay_data (molecule, measurement_kind, assay_result) VALUES
  ('NCCCOc1cc2ccccc2cc1C(=O)NCCCOc1cc2ccccc2cc1C(=O)Nc1ccc(Cl)cc1O', 'TGI', 4.24),
  ('O=C1C(Br)=CC2(C=C1Br)CCNC1=C2C(=O)c2ncccc2C1=O', 'TGI', 4.48),
  ('CCCCC1C=Cn2c(=O)oc3c(OC(C)C)c(C)c(O)c1c32 (stereo not given)', 'TGI', 5.93);

Next item in the queue.
Query: Look at this molecule and give its reported TGI. COc1ccc(C2c3cc4c(cc3OC(N3CCOCC3)C2C)OCO4)cc1 (stereo not given)
Reply: 61.6

###

Entries and their measured TGI follow.
System: MOLT-4 leukemia
ASSAY_NOTES: NCI tumour cell line growth inhibition, 48 h
Output spec: scalar in µM, unitless text.

Query: Look at this compound and give its reported TGI. `CN(C)CCCNc1ccc2ncn3c4ccc(O)cc4c(=O)c1c23`
Reply: 10.1

Query: Look at this compound and give its reported TGI. `C/C(=N\NC(=S)N1CCCC1)c1nc2ncccc2[nH]1`
Reply: 3.7

Query: Look at this compound and give its reported TGI. `COc1ccc(-c2nn(-c3cccc(Cl)c3)cc2-c2nc(N)[nH]c(=O)c2C#N)cc1`
Reply: 39.8

###

System: OVCAR-4 ovarian
ASSAY_NOTES: NCI tumour cell line growth inhibition, 48 h
MEASUREMENT_KIND: TGI

Would you please look over these solved cases?
INSERT INTO measurements (compound, measurement_kind, assay_result) VALUES
  ('C=CCC1(C)CCCCC1(O)CS(=O)c1ccccc1 (stereo unspecified)', 'TGI', '> 100 µM'),
  ('CC(=O)[CH-]C(=O)c1ccccc1.CC(=O)[CH-]C(=O)c1ccccc1.O=S(=O)([O-])c1cc([O-])c2c([O-])cc(S(=O)(=O)[O-])cc2c1.[Na+].[Ti+4]', 'TGI', '> 100 µM'),
  ('O=C1c2ccccc2C(=O)N1C/C=N/NS(=O)(=O)c1ccc(Br)cc1', 'TGI', '> 100 µM'),
  ('CCC(=O)OCN(C)c1nc(N(C)COC(=O)CC)nc(N(C)COC(=O)CC)n1', 'TGI', '> 100 µM'),
  ('N[C@H](Cc1ccc2oc3cc(=O)c4ccccc4c-3nc2c1)C(=O)O', 'TGI', '> 100 µM');

Query: Look at this compound and give its reported TGI. `COc1cc(-c2nnc3n2NC=C(C(=O)O)S3)cc(OC)c1OC`
Reply: > 87.5 µM

Query: Look at this compound and give its reported TGI. `Cc1c2ccc3ccccc3c2c[n+]2ccccc12`
Reply: 38.8 µM

Query: Look at this compound and give its reported TGI. `OC(C/C=N/N=C/CC(O)(C(F)(F)Cl)C(F)(F)Cl)(C(F)(F)Cl)C(F)(F)Cl`
Reply: > 10 µM

Query: Look at this compound and give its reported TGI. `COc1ccc(/C(Cl)=C(\C#N)c2ccc(OC)c(OC)c2)cc1OC`
Reply: > 100 µM

Query: Look at this compound and give its reported TGI. `CCc1nc(Cl)c(Cl)c(Cl)n1`
Reply: > 100 µM

Query: Look at this compound and give its reported TGI. `CC(=O)Nc1c(C(=N)C#N)ncn1CCO`
Reply: > 100 µM
